# MEASURED TARGET: HIV-1 pseudovirus 6952.v1.c20 (HIV-1)
# PROTOCOL DESCRIPTION: cell-based or functional assay
// boundary case: IC50 (neutralization in TZM.bl cells) equal to 1 µg/mL maps to Criterion not met; strictly smaller maps to Criterion met

BINDER | CLASS ASSIGNMENT
MS-83 (antibody, V domains shown) VH: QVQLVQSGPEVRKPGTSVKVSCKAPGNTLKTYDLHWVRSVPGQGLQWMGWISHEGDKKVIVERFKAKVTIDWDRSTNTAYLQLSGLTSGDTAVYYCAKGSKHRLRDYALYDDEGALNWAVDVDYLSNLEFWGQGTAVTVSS VL: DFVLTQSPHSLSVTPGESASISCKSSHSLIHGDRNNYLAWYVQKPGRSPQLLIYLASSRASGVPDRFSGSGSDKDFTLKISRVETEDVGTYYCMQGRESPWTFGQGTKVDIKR | Criterion met
MS-85 (antibody, V domains shown) VH: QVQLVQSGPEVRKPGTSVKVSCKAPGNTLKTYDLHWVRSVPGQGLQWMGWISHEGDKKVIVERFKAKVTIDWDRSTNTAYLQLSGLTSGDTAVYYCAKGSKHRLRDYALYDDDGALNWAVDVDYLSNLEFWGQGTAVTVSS VL: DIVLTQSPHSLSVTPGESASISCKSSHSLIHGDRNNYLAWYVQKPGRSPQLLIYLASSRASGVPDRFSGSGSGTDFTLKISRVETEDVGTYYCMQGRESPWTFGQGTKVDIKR | Criterion met
MS-92 (antibody, V domains shown) VH: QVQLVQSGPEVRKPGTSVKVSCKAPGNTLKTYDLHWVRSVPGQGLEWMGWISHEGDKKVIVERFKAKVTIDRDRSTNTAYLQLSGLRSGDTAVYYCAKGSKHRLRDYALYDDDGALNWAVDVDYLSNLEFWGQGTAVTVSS VL: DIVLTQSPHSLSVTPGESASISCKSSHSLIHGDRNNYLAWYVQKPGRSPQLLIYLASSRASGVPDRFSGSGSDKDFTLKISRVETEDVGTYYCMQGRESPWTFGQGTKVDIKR | Criterion not met
MS-84 (antibody, V domains shown) VH: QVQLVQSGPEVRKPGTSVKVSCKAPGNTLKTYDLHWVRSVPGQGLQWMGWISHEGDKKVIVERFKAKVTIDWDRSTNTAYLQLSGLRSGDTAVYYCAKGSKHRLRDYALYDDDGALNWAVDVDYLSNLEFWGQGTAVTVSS VL: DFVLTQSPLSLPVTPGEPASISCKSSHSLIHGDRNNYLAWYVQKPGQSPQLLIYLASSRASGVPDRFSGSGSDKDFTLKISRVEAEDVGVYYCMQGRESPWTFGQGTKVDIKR | Criterion met
MS-77 (antibody, V domains shown) VH: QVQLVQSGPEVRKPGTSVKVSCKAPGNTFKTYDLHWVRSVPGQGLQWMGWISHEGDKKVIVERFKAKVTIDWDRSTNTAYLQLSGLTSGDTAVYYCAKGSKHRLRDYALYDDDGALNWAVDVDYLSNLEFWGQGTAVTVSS VL: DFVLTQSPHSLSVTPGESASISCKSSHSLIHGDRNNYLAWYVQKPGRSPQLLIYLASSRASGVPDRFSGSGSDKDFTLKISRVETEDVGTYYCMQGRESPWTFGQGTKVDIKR | Criterion met
MS-72 (antibody, V domains shown) VH: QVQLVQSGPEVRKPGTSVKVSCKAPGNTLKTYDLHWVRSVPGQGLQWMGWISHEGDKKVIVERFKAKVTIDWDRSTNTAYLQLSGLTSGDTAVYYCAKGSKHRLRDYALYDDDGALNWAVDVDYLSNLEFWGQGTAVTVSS VL: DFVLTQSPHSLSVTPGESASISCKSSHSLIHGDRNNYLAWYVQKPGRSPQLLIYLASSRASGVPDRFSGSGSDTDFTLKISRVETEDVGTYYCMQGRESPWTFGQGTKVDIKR | Criterion met
MS-79 (antibody, V domains shown) VH: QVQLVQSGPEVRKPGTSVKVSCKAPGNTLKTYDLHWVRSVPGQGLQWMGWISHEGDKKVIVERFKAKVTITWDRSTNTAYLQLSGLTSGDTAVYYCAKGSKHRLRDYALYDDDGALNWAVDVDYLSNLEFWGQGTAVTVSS VL: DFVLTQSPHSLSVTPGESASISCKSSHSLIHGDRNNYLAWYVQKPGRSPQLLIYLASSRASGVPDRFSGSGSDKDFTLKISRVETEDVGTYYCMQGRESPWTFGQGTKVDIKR | Criterion not met
MS-87 (antibody, V domains shown) VH: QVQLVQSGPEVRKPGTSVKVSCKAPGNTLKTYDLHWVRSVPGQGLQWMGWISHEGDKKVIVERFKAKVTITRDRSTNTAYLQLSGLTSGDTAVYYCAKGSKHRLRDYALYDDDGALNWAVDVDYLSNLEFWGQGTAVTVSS VL: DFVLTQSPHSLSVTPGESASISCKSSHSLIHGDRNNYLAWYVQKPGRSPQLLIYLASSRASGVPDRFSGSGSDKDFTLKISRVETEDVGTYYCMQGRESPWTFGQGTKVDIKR | Criterion not met
